# Target Entity: DPP IV (Homo sapiens, UniProt P27487)
# Construct: gene DPP4
# Sequence (P27487 39-766): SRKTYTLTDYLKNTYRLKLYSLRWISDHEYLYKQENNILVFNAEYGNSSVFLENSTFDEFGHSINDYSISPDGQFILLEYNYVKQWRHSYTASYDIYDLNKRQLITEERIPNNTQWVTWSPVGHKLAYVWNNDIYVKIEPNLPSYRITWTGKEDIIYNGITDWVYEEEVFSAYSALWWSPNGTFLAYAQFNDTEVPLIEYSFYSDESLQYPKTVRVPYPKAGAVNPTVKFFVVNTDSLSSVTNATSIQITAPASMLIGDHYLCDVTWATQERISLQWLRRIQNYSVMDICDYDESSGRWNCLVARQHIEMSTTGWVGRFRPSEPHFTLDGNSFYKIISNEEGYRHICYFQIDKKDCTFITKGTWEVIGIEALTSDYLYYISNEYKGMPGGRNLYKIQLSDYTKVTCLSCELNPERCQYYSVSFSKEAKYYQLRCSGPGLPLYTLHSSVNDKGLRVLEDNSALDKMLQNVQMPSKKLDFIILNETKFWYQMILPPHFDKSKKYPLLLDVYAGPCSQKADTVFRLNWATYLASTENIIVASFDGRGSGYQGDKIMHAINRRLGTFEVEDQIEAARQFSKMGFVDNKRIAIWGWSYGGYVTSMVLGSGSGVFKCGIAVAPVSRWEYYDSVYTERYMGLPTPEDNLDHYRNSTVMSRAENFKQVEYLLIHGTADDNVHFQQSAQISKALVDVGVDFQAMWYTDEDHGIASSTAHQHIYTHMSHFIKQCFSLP
# Experiment: fluorometric DPP (IV) inhibitor screening kit (Cayman), Gly-Pro-AMC substrate
# Assay type: biochemical
Assay Metric: pIC50
The value called pIC50 is obtained by taking minus log10 of the concentration in mol/L.

Ask: Which pIC50 is listed for CC(C)=CCC/C(C)=C/COc1ccc2c(-c3ccccc3)cc(=O)oc2c1 [9a] ?
Result: 3.89

###

# Target Entity: DPP IV (Homo sapiens)
# Construct: gene DPP4
# Experiment: fluorometric DPP (IV) inhibitor screening kit (Cayman), Gly-Pro-AMC substrate; at […] the effect was only a tendency ([…] < p < […])
# Format: biochemical
Assay Metric: pIC50
Formally, pIC50 is defined as -log10 of the concentration c, with c in mol/L.

Ask: For CC1(C)[C@H]2CC=C(COc3ccc4c5c(c(=O)oc4c3)CCC5)[C@@H]1C2 , what is its reported pIC50?
Result: 3.94

The reported measurements were obtained from paper PMC9785006.
